Property: log10 IC50 (neutralization); scope: individual binders
# target-of-assay: HIV-1 Env of isolate MGRM-D-011 (subtype D) (HIV-1)
# assay-summary: cell-based or functional assay
Would you kindly interpret these values as log10 of IC50 (neutralization) expressed in µg/mL?

[[record]]
binder = "PGT-131 (antibody, V domains shown) VH: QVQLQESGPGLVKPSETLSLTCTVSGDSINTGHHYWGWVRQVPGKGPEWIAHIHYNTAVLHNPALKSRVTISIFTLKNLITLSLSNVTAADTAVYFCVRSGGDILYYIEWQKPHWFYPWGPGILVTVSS VL: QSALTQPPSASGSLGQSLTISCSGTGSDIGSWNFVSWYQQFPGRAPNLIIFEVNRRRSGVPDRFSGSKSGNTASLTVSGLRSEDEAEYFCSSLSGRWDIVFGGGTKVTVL"
data_value = -0.12

[[record]]
binder = "PGT-137 (antibody, V domains shown) VH: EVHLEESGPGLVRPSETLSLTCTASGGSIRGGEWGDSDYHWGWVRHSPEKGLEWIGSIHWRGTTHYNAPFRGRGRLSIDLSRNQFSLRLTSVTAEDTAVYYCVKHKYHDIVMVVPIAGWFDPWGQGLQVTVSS VL: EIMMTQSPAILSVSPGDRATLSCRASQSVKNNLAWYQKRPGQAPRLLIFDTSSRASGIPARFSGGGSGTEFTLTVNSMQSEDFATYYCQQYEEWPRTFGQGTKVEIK"
data_value = 0.80

[[record]]
binder = "PGT-125 (antibody, V domains shown) VH: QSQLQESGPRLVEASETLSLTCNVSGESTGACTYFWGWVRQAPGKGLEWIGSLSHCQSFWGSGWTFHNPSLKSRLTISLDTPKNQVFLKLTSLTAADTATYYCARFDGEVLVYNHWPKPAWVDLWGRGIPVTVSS VL: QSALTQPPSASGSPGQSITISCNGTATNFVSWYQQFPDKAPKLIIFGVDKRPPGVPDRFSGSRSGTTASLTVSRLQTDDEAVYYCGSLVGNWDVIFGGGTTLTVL"
data_value = -2.10

[[record]]
binder = "PGT-127 (antibody, V domains shown) VH: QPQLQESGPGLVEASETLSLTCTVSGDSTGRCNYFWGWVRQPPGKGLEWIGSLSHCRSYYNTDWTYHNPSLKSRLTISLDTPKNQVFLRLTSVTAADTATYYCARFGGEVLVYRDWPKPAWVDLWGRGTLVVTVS VL: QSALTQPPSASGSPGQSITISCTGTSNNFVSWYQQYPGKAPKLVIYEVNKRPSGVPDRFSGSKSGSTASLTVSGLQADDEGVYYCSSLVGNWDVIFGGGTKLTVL"
data_value = -1.82


In: log10 IC50 (neutralization) for PGT-135 (antibody, V domains shown) VH: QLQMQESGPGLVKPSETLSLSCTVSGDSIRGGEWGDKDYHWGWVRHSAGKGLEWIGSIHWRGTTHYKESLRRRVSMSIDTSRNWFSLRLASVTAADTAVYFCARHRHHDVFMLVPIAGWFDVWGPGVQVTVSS VL: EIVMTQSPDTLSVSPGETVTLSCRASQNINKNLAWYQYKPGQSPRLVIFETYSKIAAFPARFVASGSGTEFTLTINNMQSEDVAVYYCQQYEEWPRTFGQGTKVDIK ?
Out: 1.37

Taken from patent US20160264649A1.
